assay: AUC in human L2987 cells xenografted mouse at 7.5 mg/kg, po after 24 hrs; type: ADME, organism-based; parameters: time < 24 hr, dose 7.5 mg/kg, route oral; settings: in vivo
RECORDED_METRIC: AUC at 24 h (µM·h)

In [3]: df
Out[3]:
                    structure_smiles_string  readout_value
0  Cc1cc2cc(Nc3ncnn4cc(-c5nnc(C)o5)c(C(C)C)c34)cnc2[nH]1             11

====

test: Cmax in human L2987 cells xenografted mouse at 15 mg/kg, po after 24 hrs; format: ADME, organism-based; parameters: dose 15 mg/kg, route oral; conditions: in vivo
RECORDED_METRIC: Cmax (nM)

In [3]: df
Out[3]:
                    structure_smiles_string  recorded_metric  unit_spec  readout_value
0  Cc1cc2cc(Nc3ncnn4cc(-c5nnc(C)o5)c(C(C)C)c34)cnc2[nH]1             Cmax         nM           2640

====

test: Half life in BALB/c mouse at 5 mg/kg, iv; assay type: ADME, organism-based; set-up: dose 5 mg/kg, route intravenous; details: in vivo
Each entry below carries its recorded half-life.
RECORDED_METRIC: half-life

>>> print(df.to_string())
                    structure_smiles_string  readout_value
0  Cc1cc2cc(Nc3ncnn4cc(-c5nnc(C)o5)c(C(C)C)c34)cnc2[nH]1          2.9 h
1  Cc1nnc(-c2cn3ncnc(Nc4cnc5[nH]ccc5c4)c3c2C(C)C)o1          1.2 h
2  CNc1nnc(-c2cn3ncnc(Nc4cnc5[nH]c(C)cc5c4)c3c2C(C)C)o1          2.8 h

====

Each entry below carries its recorded AUC.
test: Total AUC in BALB/c mouse at 5 mg/kg, iv; format: ADME, organism-based; parameters: time AUCmax, dose 5 mg/kg, route intravenous; details: in vivo
RECORDED_METRIC: AUC (µM·h)

>>> print(df.to_string())
                    structure_smiles_string  recorded_metric  readout_value
0  Cc1nnc(-c2cn3ncnc(Nc4cnc5[nH]ccc5c4)c3c2C(C)C)o1              AUC           12.4
1  Cc1cc2cc(Nc3ncnn4cc(-c5nnc(C)o5)c(C(C)C)c34)cnc2[nH]1              AUC             25
2  CNc1nnc(-c2cn3ncnc(Nc4cnc5[nH]c(C)cc5c4)c3c2C(C)C)o1              AUC             46

====

test: Antitumor activity against human H1993 cells; format: functional, cell-based; conditions: NCI-H1993
RECORDED_METRIC: IC50

In [3]: df
Out[3]:
                    structure_smiles_string  recorded_metric  readout_value
0  Cc1cc2cc(Nc3ncnn4cc(-c5nnc(C)o5)c(C(C)C)c34)cnc2[nH]1             IC50        > 10 µM

====

target: Cytochrome P450 3A4 (Homo sapiens); test: Inhibition of CYP3A4; format: ADME
Sequence (P08684 whole entry): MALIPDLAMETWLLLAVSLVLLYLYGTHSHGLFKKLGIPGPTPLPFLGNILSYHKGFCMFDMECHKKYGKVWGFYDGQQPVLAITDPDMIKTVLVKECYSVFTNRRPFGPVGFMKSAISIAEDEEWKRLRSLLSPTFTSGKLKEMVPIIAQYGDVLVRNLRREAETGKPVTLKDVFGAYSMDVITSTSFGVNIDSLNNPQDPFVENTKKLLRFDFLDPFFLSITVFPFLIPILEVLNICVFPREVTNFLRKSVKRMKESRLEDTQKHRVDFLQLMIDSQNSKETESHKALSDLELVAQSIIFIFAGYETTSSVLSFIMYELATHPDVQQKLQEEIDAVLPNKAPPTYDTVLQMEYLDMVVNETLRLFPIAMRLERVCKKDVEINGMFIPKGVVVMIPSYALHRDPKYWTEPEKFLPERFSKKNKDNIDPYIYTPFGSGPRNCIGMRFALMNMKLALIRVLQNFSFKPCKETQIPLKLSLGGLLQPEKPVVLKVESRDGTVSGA
Each entry below carries its recorded IC50.
RECORDED_METRIC: IC50 (µM)

>>> df
                    structure_smiles_string                       tested_system  recorded_metric  unit_spec  qualifier_operator  readout_value
0  Cc1nnc(-c2cn3ncnc(Nc4cnc5[nH]ccc5c4)c3c2C(C)C)o1  Cytochrome P450 3A4 (Homo sapiens)             IC50         µM                   >             40
1  CNc1nnc(-c2cn3ncnc(Nc4cnc5[nH]c(C)cc5c4)c3c2C(C)C)o1  Cytochrome P450 3A4 (Homo sapiens)             IC50         µM                   =            6.4
2  Cc1cc2cc(Nc3ncnn4cc(-c5nnc(C)o5)c(C(C)C)c34)cnc2[nH]1  Cytochrome P450 3A4 (Homo sapiens)             IC50         µM                   =           11.5

====

Each entry below carries its recorded MRT.
assay: Mean resident time in BALB/c mouse at 5 mg/kg, iv; format: ADME, organism-based; set-up: dose 5 mg/kg, route intravenous; conditions: in vivo
RECORDED_METRIC: MRT

In [3]: df
Out[3]:
                    structure_smiles_string  readout_value
0  Cc1cc2cc(Nc3ncnn4cc(-c5nnc(C)o5)c(C(C)C)c34)cnc2[nH]1          2.7 h
1  Cc1nnc(-c2cn3ncnc(Nc4cnc5[nH]ccc5c4)c3c2C(C)C)o1          1.7 h
2  CNc1nnc(-c2cn3ncnc(Nc4cnc5[nH]c(C)cc5c4)c3c2C(C)C)o1          4.3 h

====

target: Epidermal growth factor receptor (Homo sapiens); assay: Inhibition of EGFR
Sequence (P00533 whole entry): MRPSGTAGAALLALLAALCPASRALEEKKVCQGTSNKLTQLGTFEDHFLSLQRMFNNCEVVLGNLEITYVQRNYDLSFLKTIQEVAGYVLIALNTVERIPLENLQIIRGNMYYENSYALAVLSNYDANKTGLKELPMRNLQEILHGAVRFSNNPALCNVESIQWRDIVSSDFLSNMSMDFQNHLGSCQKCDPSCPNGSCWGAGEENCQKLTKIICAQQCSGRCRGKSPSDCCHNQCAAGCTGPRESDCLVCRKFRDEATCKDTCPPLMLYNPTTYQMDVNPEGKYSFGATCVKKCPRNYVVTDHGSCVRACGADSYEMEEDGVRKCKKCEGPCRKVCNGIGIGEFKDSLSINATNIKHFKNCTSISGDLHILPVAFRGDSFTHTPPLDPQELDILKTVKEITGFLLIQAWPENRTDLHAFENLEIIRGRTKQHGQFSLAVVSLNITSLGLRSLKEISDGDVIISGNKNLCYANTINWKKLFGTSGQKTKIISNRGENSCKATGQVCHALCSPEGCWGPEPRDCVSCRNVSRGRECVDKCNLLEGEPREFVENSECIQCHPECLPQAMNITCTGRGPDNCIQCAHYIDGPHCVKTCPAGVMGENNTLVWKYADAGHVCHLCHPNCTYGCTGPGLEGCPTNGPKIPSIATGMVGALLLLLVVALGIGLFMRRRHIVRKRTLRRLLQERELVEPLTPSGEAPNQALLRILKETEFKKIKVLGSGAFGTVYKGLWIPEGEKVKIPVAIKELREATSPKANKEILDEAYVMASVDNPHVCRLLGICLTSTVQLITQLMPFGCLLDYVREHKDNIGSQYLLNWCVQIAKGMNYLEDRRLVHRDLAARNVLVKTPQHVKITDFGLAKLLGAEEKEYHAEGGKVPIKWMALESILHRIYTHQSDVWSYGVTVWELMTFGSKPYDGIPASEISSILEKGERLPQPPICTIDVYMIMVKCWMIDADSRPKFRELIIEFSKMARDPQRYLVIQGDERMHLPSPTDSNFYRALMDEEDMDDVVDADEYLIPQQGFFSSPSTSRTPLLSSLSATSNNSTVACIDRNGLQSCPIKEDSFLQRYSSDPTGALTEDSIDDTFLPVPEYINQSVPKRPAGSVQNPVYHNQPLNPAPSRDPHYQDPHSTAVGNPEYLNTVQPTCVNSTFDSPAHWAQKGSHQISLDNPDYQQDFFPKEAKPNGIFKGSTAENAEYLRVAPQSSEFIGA
pIC50: −log10 of the molar value.
RECORDED_METRIC: pIC50

                    structure_smiles_string  recorded_metric  qualifier_operator  readout_value
0  Cc1cc2cc(Nc3ncnn4cc(-c5nnc(C)o5)c(C(C)C)c34)cnc2[nH]1            pIC50                   <           6.00
1  Cc1nnc(-c2cn3ncnc(Nc4cnc5[nH]ccc5c4)c3c2C(C)C)o1            pIC50                   =           6.82

====

target: Vascular endothelial growth factor receptor 2 (Homo sapiens, UniProt P35968)
Sequence (P35968 whole entry): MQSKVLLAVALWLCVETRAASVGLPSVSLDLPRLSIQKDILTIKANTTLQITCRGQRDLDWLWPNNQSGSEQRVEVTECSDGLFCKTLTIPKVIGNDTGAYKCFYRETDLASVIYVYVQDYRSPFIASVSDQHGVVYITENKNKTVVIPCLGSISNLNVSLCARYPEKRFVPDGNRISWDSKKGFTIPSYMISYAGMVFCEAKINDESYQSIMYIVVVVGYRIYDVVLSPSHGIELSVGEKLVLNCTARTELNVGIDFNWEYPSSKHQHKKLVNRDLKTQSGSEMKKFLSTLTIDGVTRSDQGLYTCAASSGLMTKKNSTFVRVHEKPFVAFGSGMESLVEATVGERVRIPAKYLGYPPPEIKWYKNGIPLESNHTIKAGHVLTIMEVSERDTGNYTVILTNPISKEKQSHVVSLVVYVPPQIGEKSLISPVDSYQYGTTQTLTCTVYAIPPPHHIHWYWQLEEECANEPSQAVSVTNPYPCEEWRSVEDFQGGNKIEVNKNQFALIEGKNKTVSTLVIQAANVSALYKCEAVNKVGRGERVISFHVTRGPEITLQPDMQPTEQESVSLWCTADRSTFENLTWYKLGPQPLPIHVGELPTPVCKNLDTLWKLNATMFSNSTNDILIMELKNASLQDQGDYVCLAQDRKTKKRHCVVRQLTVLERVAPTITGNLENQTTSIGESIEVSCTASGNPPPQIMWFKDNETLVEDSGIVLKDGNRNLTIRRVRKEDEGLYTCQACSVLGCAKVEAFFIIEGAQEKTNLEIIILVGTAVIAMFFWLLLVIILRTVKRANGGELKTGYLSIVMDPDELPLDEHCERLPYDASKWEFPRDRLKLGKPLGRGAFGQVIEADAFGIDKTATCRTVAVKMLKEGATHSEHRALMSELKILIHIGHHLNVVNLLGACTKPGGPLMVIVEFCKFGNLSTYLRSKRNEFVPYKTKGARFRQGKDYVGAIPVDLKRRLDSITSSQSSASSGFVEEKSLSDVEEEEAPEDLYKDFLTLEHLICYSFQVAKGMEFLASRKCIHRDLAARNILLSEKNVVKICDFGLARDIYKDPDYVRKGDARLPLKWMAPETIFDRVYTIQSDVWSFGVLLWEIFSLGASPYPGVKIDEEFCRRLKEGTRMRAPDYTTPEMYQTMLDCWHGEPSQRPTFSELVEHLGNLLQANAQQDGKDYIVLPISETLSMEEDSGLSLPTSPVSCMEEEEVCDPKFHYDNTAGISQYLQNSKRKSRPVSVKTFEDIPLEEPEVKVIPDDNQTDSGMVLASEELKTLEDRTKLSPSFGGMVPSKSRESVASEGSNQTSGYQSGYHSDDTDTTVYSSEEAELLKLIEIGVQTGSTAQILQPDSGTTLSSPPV
Each entry below carries its recorded IC50.
RECORDED_METRIC: IC50 (µM)

>>> df
                    structure_smiles_string  recorded_metric  readout_value
0  Cc1nnc(-c2cn3ncnc(Nc4cnc5[nH]ccc5c4)c3c2C(C)C)o1             IC50          0.031
1  Cc1cc2cc(Nc3ncnn4cc(-c5nnc(C)o5)c(C(C)C)c34)cnc2[nH]1             IC50          0.025

====

Each entry below carries its recorded inhibition at 10 µM.
target: UniProtKB Q12809; test: Inhibition of human ERG at 10 uM by patch clamp method
RECORDED_METRIC: inhibition at 10 µM (%)

>>> df
                    structure_smiles_string  unit_spec  readout_value
0  Cc1cc2cc(Nc3ncnn4cc(-c5nnc(C)o5)c(C(C)C)c34)cnc2[nH]1          %             64
1  Cc1nnc(-c2cn3ncnc(Nc4cnc5[nH]ccc5c4)c3c2C(C)C)o1          %             29

====

target: Voltage-gated inwardly rectifying potassium channel KCNH2 (Homo sapiens); test: Inhibition of human ERG by patch clamp method
Sequence (Q12809 whole entry): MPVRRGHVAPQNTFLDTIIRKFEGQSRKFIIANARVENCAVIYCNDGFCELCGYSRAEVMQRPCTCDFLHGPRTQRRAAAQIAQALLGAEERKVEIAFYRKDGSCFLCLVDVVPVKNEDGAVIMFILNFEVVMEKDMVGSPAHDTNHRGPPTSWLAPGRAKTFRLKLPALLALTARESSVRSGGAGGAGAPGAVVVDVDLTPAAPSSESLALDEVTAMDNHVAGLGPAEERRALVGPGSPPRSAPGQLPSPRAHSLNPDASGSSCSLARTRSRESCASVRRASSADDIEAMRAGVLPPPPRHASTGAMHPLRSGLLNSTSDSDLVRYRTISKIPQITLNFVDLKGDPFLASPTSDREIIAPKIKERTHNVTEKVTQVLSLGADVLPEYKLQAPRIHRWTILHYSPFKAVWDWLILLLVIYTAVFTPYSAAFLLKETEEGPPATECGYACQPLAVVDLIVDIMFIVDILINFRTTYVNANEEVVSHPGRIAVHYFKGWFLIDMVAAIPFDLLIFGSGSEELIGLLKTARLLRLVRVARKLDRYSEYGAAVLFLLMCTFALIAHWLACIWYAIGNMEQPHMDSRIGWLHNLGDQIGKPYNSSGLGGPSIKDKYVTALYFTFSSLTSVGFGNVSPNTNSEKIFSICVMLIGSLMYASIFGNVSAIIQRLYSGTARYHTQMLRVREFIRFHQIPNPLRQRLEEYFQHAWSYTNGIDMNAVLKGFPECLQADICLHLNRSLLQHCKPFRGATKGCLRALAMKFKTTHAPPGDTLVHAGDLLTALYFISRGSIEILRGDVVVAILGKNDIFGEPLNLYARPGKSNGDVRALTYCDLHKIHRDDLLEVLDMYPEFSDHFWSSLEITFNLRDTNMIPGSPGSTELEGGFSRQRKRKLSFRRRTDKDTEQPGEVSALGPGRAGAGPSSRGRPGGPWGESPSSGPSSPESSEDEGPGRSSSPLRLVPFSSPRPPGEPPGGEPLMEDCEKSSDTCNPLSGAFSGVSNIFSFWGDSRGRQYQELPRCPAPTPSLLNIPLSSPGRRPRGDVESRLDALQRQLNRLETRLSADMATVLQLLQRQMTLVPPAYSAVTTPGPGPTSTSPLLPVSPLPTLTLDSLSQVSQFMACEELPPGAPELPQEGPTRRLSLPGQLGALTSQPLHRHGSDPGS
RECORDED_METRIC: IC50 (µM)

>>> df
                    structure_smiles_string                             tested_system  recorded_metric  unit_spec  readout_value
0  Cc1cc2cc(Nc3ncnn4cc(-c5nnc(C)o5)c(C(C)C)c34)cnc2[nH]1  Voltage-gated inwardly rectifying potassium channel KCNH2 (Homo sapiens)             IC50         µM            6.6

====

tested on: Rattus norvegicus; test: AUC in rat at 30 mg/kg; type: ADME, organism-based, Plasma; set-up: dose 30 mg/kg; settings: in vivo
RECORDED_METRIC: AUC (µM·h)

                    structure_smiles_string  recorded_metric  readout_value
0  Cc1cc2cc(Nc3ncnn4cc(-c5nnc(C)o5)c(C(C)C)c34)cnc2[nH]1              AUC            287

====

biological target: Receptor tyrosine-protein kinase erbB-2 (Homo sapiens)
RECORDED_METRIC: IC50 (nM)

                    structure_smiles_string  readout_value
0  Cc1nnc(-c2cn3ncnc(Nc4cnc5[nH]ccc5c4)c3c2C(C)C)o1            500

====

biological target: UniProt P35918
pIC50: −log10 of the molar value.
RECORDED_METRIC: pIC50

                    structure_smiles_string   tested_system  readout_value
0  Cc1cc2cc(Nc3ncnn4cc(-c5nnc(C)o5)c(C(C)C)c34)cnc2[nH]1  UniProt P35918           7.28

====

assay: Tmax in BALB/c mouse at 30 mg/kg, po; conditions: in vivo
RECORDED_METRIC: Tmax (min)

In [3]: df
Out[3]:
                    structure_smiles_string  recorded_metric  readout_value
0  Cc1cc2cc(Nc3ncnn4cc(-c5nnc(C)o5)c(C(C)C)c34)cnc2[nH]1             Tmax             30

Origin of measurements: ChEMBL document CHEMBL1145598
